Experiment: Tmax in C57BL/6 mouse liver at 10 mg/kg, ip administered as single dose by mass spectrometry
Format: ADME, organism-based
Measured Parameter: Tmax (min)

[
  {
    "Chemical String": "CC(C)COC(=O)NC[C@@H]1CC[C@H]2[C@H](COc3ccc(NC(=O)c4ccc(C(F)(F)F)cc4)cc3C(=O)N2C)O1",
    "Result": 4.8
  }
]

(a) CN1C(=O)c2cc(NC(=O)c3ccc(C(F)(F)F)cc3)ccc2OC[C@@H]2O[C@H](CC(=O)NC3Cc4ccccc4C3)CC[C@@H]21
(b) CN1C(=O)c2cc(NC(=O)c3ccc(C(F)(F)F)cc3)ccc2OC[C@@H]2O[C@H](CNc3nnc(C4CCC4)o3)CC[C@@H]21
Request: Decide: a or b , by lowest recorded Tmax. Give the label of your selection.
Result: a
(a: 4.8 min, b: 60 min)
